substrate: CCO; test: purified protein; conditions: 100 mM glycine-NaOH pH 10, 2.4 mM NAD+, 30 °C, oxidation
property-name: Km (µM)
Give bare numbers, in µM.

>>> number("EtgB, NAD-dependent alcohol dehydrogenase (Pden_2367) (enzyme, Paracoccus denitrificans DSM 413, The enzyme holds zinc ions; also called EtgB WT; alcohol dehydrogenase EtgB; source: E. coli BL21 AI, purified (Ni-NTA, desalting, size exclusion on Superdex 200 Increase)) MAKTMKAAVVREFGKPLTIDEVPVPEPGPGMIQVRIQASGVCHTDLHAAEGDWPVKPNPPFIPGHEGVGFVSAVGAGVKHVKEGDRVGVPWLYTACGHCRHCLGGWETLCESQLNTGYSVNGGFADYVVADPNYVGHLPKNVDFLDIAPVLCAGVTVYKGLKVTDTKPGDWVVISGIGGLGHMAVQYAKAMGMNVAAVDIDDEKLALARKLGATVTVNAATEPDPAAAIRKQTDGGAQGVLVTAVGRKAFEQAIGMVARGGTVALNGLPPGDFPLDIFGMVLNGITVRGSIVGTRLDLQESLDFAGDGKVKATVHKAKLEDINNIFGQMHKGQIEGRMVLDMAG")
120
>>> number("EtgB (Paracoccus denitrificans PD1222; H47N) (protein, pET16b, His-tagged, E. coli BL21 AI, Ni-NTA purified; homotetramer; zinc-dependent medium-chain alcohol dehydrogenase) MAKTMKAAVVREFGKPLTIDEVPVPEPGPGMIQVRIQASGVCHTDLNAAEGDWPVKPNPPFIPGHEGVGFVSAVGAGVKHVKEGDRVGVPWLYTACGHCRHCLGGWETLCESQLNTGYSVNGGFADYVVADPNYVGHLPKNVDFLDIAPVLCAGVTVYKGLKVTDTKPGDWVVISGIGGLGHMAVQYAKAMGMNVAAVDIDDEKLALARKLGATVTVNAATEPDPAAAIRKQTDGGAQGVLVTAVGRKAFEQAIGMVARGGTVALNGLPPGDFPLDIFGMVLNGITVRGSIVGTRLDLQESLDFAGDGKVKATVHKAKLEDINNIFGQMHKGQIEGRMVLDMAG")
230
>>> number("EtgB (Paracoccus denitrificans PD1222; T44S) (protein, pET16b, His-tagged, E. coli BL21 AI, Ni-NTA purified; homotetramer; zinc-dependent medium-chain alcohol dehydrogenase) MAKTMKAAVVREFGKPLTIDEVPVPEPGPGMIQVRIQASGVCHSDLHAAEGDWPVKPNPPFIPGHEGVGFVSAVGAGVKHVKEGDRVGVPWLYTACGHCRHCLGGWETLCESQLNTGYSVNGGFADYVVADPNYVGHLPKNVDFLDIAPVLCAGVTVYKGLKVTDTKPGDWVVISGIGGLGHMAVQYAKAMGMNVAAVDIDDEKLALARKLGATVTVNAATEPDPAAAIRKQTDGGAQGVLVTAVGRKAFEQAIGMVARGGTVALNGLPPGDFPLDIFGMVLNGITVRGSIVGTRLDLQESLDFAGDGKVKATVHKAKLEDINNIFGQMHKGQIEGRMVLDMAG")
100

Q: Requested read-out: Km. Entry: EtgB (Paracoccus denitrificans PD1222; H47N/T44S) (protein, pET16b, His-tagged, E. coli BL21 AI, Ni-NTA purified; homotetramer; zinc-dependent medium-chain alcohol dehydrogenase) MAKTMKAAVVREFGKPLTIDEVPVPEPGPGMIQVRIQASGVCHSDLNAAEGDWPVKPNPPFIPGHEGVGFVSAVGAGVKHVKEGDRVGVPWLYTACGHCRHCLGGWETLCESQLNTGYSVNGGFADYVVADPNYVGHLPKNVDFLDIAPVLCAGVTVYKGLKVTDTKPGDWVVISGIGGLGHMAVQYAKAMGMNVAAVDIDDEKLALARKLGATVTVNAATEPDPAAAIRKQTDGGAQGVLVTAVGRKAFEQAIGMVARGGTVALNGLPPGDFPLDIFGMVLNGITVRGSIVGTRLDLQESLDFAGDGKVKATVHKAKLEDINNIFGQMHKGQIEGRMVLDMAG
Result: 100
